# protocol.description: MTT cytotoxicity assay, HEK-293 cell line
# Format: cell-based
# study.conditions: human, HEK-293 cells, final concentration of 50 μM
Would you kindly list cytotoxicity at 24 h, 50 µM for each of these compounds?
Provide the reading as a plain figure in %.

Inquiry: Look up cytotoxicity at 24 h, 50 µM of Cc1ccc(C(=O)Nc2ccc(S(=O)(=O)O)c3cc(S(=O)(=O)O)cc(S(=O)(=O)O)c23)cc1NC(=O)c1cccc(NC(=O)Nc2cccc(C(=O)Nc3cc(C(=O)Nc4ccc(S(=O)(=O)O)c5cc(S(=O)(=O)O)cc(S(=O)(=O)O)c45)ccc3C)c2)c1 [Suramin, reference compound] and report it.
Reply text: 48

Inquiry: Look up cytotoxicity at 24 h, 50 µM of O=C(NC(=S)Nc1cc([N+](=O)[O-])ccc1Cl)C12CC3CC(CC(C3)C1)C2 [Ih] and report it.
Reply text: 24.6

Inquiry: Look up cytotoxicity at 24 h, 50 µM of CC(C)c1ccc(NC(=S)NC(=O)C23CC4CC(CC(C4)C2)C3)c(Br)c1 [Ip] and report it.
Reply text: 20.6

Inquiry: Look up cytotoxicity at 24 h, 50 µM of O=C(NC(=S)Nc1cc(Br)ccc1Br)C12CC3CC(CC(C3)C1)C2 [Iq] and report it.
Reply text: 14.8
